target_or_system: wild type and amino acid substituted PPO enzyme (Amaranthus tuberculatus, UniProt Q0NZW9, F204I/L397D/T208S)
Sequence (Q0NZW9 1-534 F204I/T208S/L397D): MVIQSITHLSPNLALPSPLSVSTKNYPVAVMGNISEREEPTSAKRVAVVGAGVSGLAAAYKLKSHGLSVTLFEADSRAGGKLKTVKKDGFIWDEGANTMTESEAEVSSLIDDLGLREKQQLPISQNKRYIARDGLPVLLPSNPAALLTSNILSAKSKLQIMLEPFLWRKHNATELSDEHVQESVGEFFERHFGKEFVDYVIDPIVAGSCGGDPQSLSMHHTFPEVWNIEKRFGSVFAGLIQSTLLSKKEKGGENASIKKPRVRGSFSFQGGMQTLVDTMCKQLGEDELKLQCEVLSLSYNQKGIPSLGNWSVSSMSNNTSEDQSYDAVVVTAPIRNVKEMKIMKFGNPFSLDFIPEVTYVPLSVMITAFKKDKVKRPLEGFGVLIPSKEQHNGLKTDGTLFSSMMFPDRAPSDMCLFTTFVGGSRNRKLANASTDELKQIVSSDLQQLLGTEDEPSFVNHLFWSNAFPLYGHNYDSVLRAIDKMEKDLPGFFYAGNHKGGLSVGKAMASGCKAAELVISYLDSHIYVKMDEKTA
measurement_protocol: biochemical
applied_conditions: IC50 (M)
metric: IC50

1. C#CCN1C(=O)C(F)(F)Oc2cc(F)c(-n3c(=O)n(C)c(=S)n(C)c3=O)cc21 | 5.52e-11 M

----------
target_or_system: wild type and amino acid substituted PPO enzyme (Amaranthus tuberculatus, UniProt Q0NZW9, F420V/L397C)
measurement_protocol: biochemical
applied_conditions: IC50 (M)
metric: IC50

1. C#CCN1C(=O)C(F)(F)Oc2cc(F)c(-n3c(=O)n(C)c(=S)n(C)c3=O)cc21 | 5.54e-08 M

Values were extracted from patent US12686873B2.
